# Test Target: T1, hROR2ECD-his (human, UniProt Q01974 34-403)
# T1 construct: extracellular domain; bought, Acrobiosystems R02-H52E5; also called huROR2-his
# T1 sequence (Q01974 34-403): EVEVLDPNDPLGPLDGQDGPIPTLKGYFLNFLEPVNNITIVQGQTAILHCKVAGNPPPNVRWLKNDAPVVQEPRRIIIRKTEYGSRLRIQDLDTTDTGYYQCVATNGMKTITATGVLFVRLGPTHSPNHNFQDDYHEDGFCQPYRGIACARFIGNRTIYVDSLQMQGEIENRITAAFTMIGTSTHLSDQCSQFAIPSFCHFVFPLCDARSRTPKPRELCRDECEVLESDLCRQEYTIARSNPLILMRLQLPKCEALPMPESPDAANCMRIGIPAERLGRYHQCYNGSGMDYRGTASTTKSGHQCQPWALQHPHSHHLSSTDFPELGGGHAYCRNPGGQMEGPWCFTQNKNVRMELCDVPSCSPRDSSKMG
# Test Protocol: ELISA, plate coated with hROR2 ECD-his
Attribute Measured: binding result

PR001366 (antibody, V domains shown, fully human IgG1, kappa) VH: QVQLVESGGGVVQPGRSLRLSCTASGFTFSSYGMHWVRQAPGKGLEWVAVKWYDGISQNFADSVKGRFTISRDNSKNTLYLQMNSLRAEDTAVYYCARDLARSFDIWGRGTLVTVSS VL: DIQLTQSPSTLSASVGDRVTITCRASQSINSWLAWYQQKPGKAPKLLIYKASSLESGVPSRFSGSGSGTEFTLTISSLQPDDFATYYCQQYKSYSPMYTFGQGTKVDIKR | no binding
PR001416 (antibody, human IgG1, kappa, V domains shown, fully human IgG1, kappa) VH: QVQLVESGGGVVQPGRSLRLSCAASGFTFSTYGMHWVRQAPGKGLEWVAVIWYDGSDKDYADSVKGRFTISRDTSKNTLYLQMNSLRAEDTAVYYCAREQARSFDLWGRGTLVTVSS VL: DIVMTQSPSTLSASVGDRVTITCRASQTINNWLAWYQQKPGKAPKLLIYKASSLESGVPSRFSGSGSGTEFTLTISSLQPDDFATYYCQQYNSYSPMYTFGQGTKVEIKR | no binding
PR001368 (antibody, V domains shown, fully human IgG1, kappa) VH: QVQLVESGGGVVQPGRSLRLSCAASGFTFSTYGMHWVRQAPGKGLEWVAVIWYDGSDTDYADSVKGRFTISRDTSKNTLYLQMNSLRAEDTAVYYCAREQARSFDLWGRGTLVTVSS VL: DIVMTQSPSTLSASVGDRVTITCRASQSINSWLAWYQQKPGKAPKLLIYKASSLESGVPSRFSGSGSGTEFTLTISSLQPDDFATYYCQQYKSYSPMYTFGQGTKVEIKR | no binding
